target: Kv7.2/7.3 (Homo sapiens, UniProt O43525+O43526); construct: host or cells: HEK cells, tetracycline-inducible expression; test: Kv7.2/7.3 activation assay, QPatch planar patch-clamp, single concentration screen; type: cell-based; set-up: key: <1.2-fold increase over baseline (−); +/−: as a range from <1.2-fold increase over baseline (−) up to >6-fold increase over baseline (+++); as a range from <1.2-fold increase over baseline (−) up to >6-fold increase over baseline (+++); as a range from <1.2-fold increase over baseline (−) up to >6-fold increase over baseline (+++); >6-fold increase over baseline (+++); details: Kv7.2/Kv7.3 co-expressing HEK cells, compound 3 μM, steady-state current at end of 2 s pulse to −30 mV
assayReadout: Kv7.2/7.3 Activity: increase in current over baseline

Here are 8 compounds together with their reported answers.
{"columns": ["compound", "result"],
 "data": [
  ["CC(C)[C@H](C)C(=O)Nc1nc2ccc(Cl)cc2n1C1CCC1 [Example 59]", "+"],
  ["CC1(n2c(NC(=O)C[C@@](C)(O)c3ccccc3)nc3ccc(C#N)cc32)CCC1 [Example 96]", "++"],
  ["Cc1cc2nc(NC(=O)CC(C)(C)O)n(C3CCC3)c2cc1C#N [Example 130]", "+/−"],
  ["CC(O)(CC(=O)Nc1nc2ccc(C#N)cc2n1C1CCC1)c1ccccc1 (centres unmarked) [Example 17]", "++"],
  ["C[C@](O)(CC(=O)Nc1nc2ccc(Cl)cc2n1C1CCC1)c1ccccc1 [Example 99]", "+"],
  ["C[C@](O)(C(=O)Nc1nc2ccc(C#N)cc2n1C1CCC1)C(F)(F)F [Example 16]", "+/−"],
  ["CC(C)(O)c1ccc2nc(NC(=O)C[C@](C)(O)c3ccccc3)n(C3CCC3)c2c1 [Example 84]", "+"],
  ["O=C(CC1(O)CCC1)Nc1nc2ccc(C(F)(F)F)cc2n1-c1ccc(OC(F)(F)F)cc1 [Example 142]", "++"]
]}

Fill blank: measured Kv7.2/7.3 Activity: increase in current over baseline of the compound CC(C)(C)CC(=O)Nc1nc2cccc(CO)c2n1C1CCC1 [Example 68] is ____.
+

Fill blank: measured Kv7.2/7.3 Activity: increase in current over baseline of the compound CC(C)(O)c1ccc2nc(NC(=O)CC(O)(C(F)(F)F)C(F)(F)F)n(-c3ccc(F)cc3)c2c1 [Example 131] is ____.
+/−

Fill blank: measured Kv7.2/7.3 Activity: increase in current over baseline of the compound O=C(CC(C(F)(F)F)C(F)(F)F)Nc1nc2ccc(C(F)(F)F)cc2n1C1CCC1 [Example 39] is ____.
+

Fill blank: measured Kv7.2/7.3 Activity: increase in current over baseline of the compound N#Cc1ccc2nc(NC(=O)[C@@H]3C[C@@H]4CC[C@H]3C4)n(C3CCC3)c2c1 [Example 10] is ____.
+

Fill blank: measured Kv7.2/7.3 Activity: increase in current over baseline of the compound C[C@](O)(CC(=O)Nc1nc2ccc(Cl)cc2n1-c1ccc(F)cc1)c1ccccc1 [Example 107] is ____.
+

Fill blank: measured Kv7.2/7.3 Activity: increase in current over baseline of the compound C[C@H](C(=O)Nc1nc2ccc(C#N)cc2n1C1CCC1)[C@@](C)(O)c1ccccc1 [Example 18] is ____.
+

Fill blank: measured Kv7.2/7.3 Activity: increase in current over baseline of the compound COC(C)(C)CC(=O)Nc1nc2ccc(C#N)cc2n1C1CCC1 [Example 12] is ____.
+/−

Fill blank: measured Kv7.2/7.3 Activity: increase in current over baseline of the compound CC(C)(O)c1ccc2nc(NC(=O)C3CC34CC4)n(-c3ccc(F)cc3)c2c1 (centres unmarked) [Example 109] is ____.
+

###

Target: Kv7.2/7.3 (Homo sapiens, UniProt O43525+O43526)
Construct: host or cells: HEK cells, tetracycline-inducible expression
Experiment: Kv7.2/7.3 activation assay, QPatch planar patch-clamp, single concentration screen
Assay type: cell-based
Parameters: key: <1.2-fold increase over baseline (−); +/−: as a range from <1.2-fold increase over baseline (−) up to >6-fold increase over baseline (+++); as a range from <1.2-fold increase over baseline (−) up to >6-fold increase over baseline (+++); as a range from <1.2-fold increase over baseline (−) up to >6-fold increase over baseline (+++); >6-fold increase over baseline (+++)
Conditions: Kv7.2/Kv7.3 co-expressing HEK cells, compound 3 μM, steady-state current at end of 2 s pulse to −30 mV
Experimental: The ability of compounds to potentiate K-currents in Kv7.2/7.3 containing HEK cells was assessed using planar patch-clamp on the QPatch automated screening platform. Cell Line: The hKv7.2/7.3 cell line was obtained from Chantest (Cleveland, OH 44128) cat. #CT6147. These HEK cells will express the Kv7.2/7.3 ion channels when induced. […] Potassium channel activity was measured on the QPatch HTX (Sophion Bioscience) using QPlates with 48-wells/plate. […]
assayReadout: Kv7.2/7.3 Activity: increase in current over baseline

Here are 5 molecules together with their reported answers.
{"columns": ["molecule", "result"],
 "data": [
  ["Cc1cc2nc(NC(=O)C[C@@](C)(O)C(F)(F)F)n(C(C)(C)C)c2cc1C#N [Example 135]", "+/−"],
  ["CC(C)c1ccc2nc(NC(=O)CC(C)(C)C)n(C3CCC3)c2c1 [Example 64]", "++"],
  ["Cc1cc2nc(NC(=O)CC(C)(C)O)n(C(C)(C)C)c2cc1C#N [Example 128]", "+/−"],
  ["CC(C)(O)c1ccc2nc(NC(=O)C3CC34CC4)n(C3CCC3)c2c1 (stereo not drawn) [Example 105]", "+"],
  ["CN(C)C(=O)Cc1ccc2nc(NC(=O)CC(C)(C)C)n(C3CCC3)c2c1F [Example 118]", "+"]
]}

Fill blank: measured Kv7.2/7.3 Activity: increase in current over baseline of the molecule N#Cc1ccc2nc(NC(=O)C[C@H](O)c3ccccc3)n(C3CCC3)c2c1 [Example 26] is ____.
+/−

Fill blank: measured Kv7.2/7.3 Activity: increase in current over baseline of the molecule CC(C)(O)c1ccc2nc(NC(=O)[C@@H]3CC3(C)C)n(C3CCC3)c2c1 [Example 89] is ____.
++

Fill blank: measured Kv7.2/7.3 Activity: increase in current over baseline of the molecule C[C@H](C(=O)Nc1nc2ccc(C#N)cc2n1-c1ccc(F)cc1)C(C)(C)C [Example 71] is ____.
+

Fill blank: measured Kv7.2/7.3 Activity: increase in current over baseline of the molecule CC(O)c1ccc2nc(NC(=O)[C@@H](C)C(C)C)n(C3CCC3)c2c1 (stereo partly drawn) [Example 56] is ____.
++
